test: self-splicing fitness, log relative to wild type (ln ratio); higher = more splicing; Tetrahymena group I intron in knt gene, E. coli kanamycin selection, DiMSum; sequences stand for … in CUCUCU…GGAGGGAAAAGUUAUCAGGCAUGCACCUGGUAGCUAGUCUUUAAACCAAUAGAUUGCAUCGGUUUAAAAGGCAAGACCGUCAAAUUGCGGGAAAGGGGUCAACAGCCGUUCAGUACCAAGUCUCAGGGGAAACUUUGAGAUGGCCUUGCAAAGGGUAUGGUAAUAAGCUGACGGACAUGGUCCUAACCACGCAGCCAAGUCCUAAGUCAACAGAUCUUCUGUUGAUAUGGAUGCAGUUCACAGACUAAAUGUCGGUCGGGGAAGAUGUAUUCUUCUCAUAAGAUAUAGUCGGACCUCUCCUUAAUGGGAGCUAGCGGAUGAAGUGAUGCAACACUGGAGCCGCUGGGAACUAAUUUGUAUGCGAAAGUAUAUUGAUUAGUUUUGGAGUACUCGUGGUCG; conditions: 30 °C;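 further: selection with 25 µg/mL kanamycin versus none on LB agar overnight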
property.name: self-splicing fitness (ln)

UAGGAGCAAUAUUACGACUA : -0.46
AGGAAGCAAUAUUACGUGGG : -4.36
AGACAGCAAUAUUACGCGCU : -2.26
GACAAGCAAUAUUACGCUAU : -1.96
AGAAAGCAAUAUUACGUAGA : -1.52

**Q:** Requested field: self-splicing fitness (ln). Item: UUACAGCAAUAUUACGGCUC
**A:** -1.76

**Q:** Could you do the same for AUGUAGCAAUAUUACGUGAA , please?
**A:** -2.3
